test system: MDA-MB-435; experiment: Cytotoxicity against human MDA-MB-435 cells assessed as cell viability after 72 hrs; assay type: functional, cell-based; conditions: MDA-MB-435, 72 h
outcome measure: IC50 (µM)
One number for each entry, in µM.

The following compounds have reported results that may help.
>>> recorded_measurement("COc1cc(O)c(Cl)c2c1C(=O)O[C@@H](C)CCC(=O)CC/C=C/C(=O)C2")
14.1
>>> recorded_measurement("COc1cc(O)cc2c1C(=O)O[C@@H](C)CCC(=O)CC/C=C/C(=O)C2")
14.1
>>> recorded_measurement("COc1cc(O)cc2c1C(=O)O[C@@H](C)CCCCC/C=C/C(=O)C2")
2.9
>>> recorded_measurement("C[C@H]1CCCCC/C=C/C(=O)Cc2cc(O)cc(O)c2C(=O)O1")
14.5

Then this compound:
`COc1cc(O)cc2c1C(=O)O[C@@H](C)CC[C@@H](O)CC/C=C/C(=O)C2` yielded IC50 of 11.2
